Below: a set of entries, each annotated with reported growth.
- Test system: K-562 leukemia
- protocol details: NCI-60 one-dose screen, 48 h (100 = growth as untreated, 0 = no growth, -100 = all killed)
- condition summary: 10 µM
- Method: Cells are grown in 96 well plates and exposed to the test compound for 48 hours. Compounds are tested at a single concentration, which is 10^-5 M for most compounds. The reported endpoint is percent growth (GI% or GIPRCNT), where numbers from 0 - 100% represent growth inhibition, and numbers from -100% - 0 represent cell death. For example, a value of 40 represents 60% growth inhibition. A value of 0 means no net growth occurred over the course of the experiment. […]
This is part of a sample that, as a whole, favours compounds with a hit. Of some 83,000 tested, about 20% had one in any assay. Active and inactive are the calls of the source. Rule for the calls: active = growth percent below 10; inactive = the rest.

molecule	target under test	growth
O=C(CC(NC(=O)OCc1ccccc1)C(=O)OCc1ccccc1)OCc1ccccc1 (stereo not drawn)	K-562 leukemia	112% (inactive)
CSc1nn(-c2ccccc2)c2ncnc(Oc3ccccc3)c12	K-562 leukemia	96.5% (inactive)
Nc1ccc2c(c1)Cc1cc(N)c(Br)cc1-2	K-562 leukemia	99.7% (inactive)
COc1ccc(-c2cc(-c3ccc(N(C)C)cc3)c(C#N)c(N3CCCC3)n2)cc1	K-562 leukemia	69.3% (inactive)
CC(C)C[C@H](NC(=O)[C@H](Cc1cccc2ccccc12)NS(=O)(=O)c1cccc2cccnc12)B(O)O	K-562 leukemia	-17.7% (active)
NC1=NC(=O)C(c2ccccc2)(c2ccccc2)S1	K-562 leukemia	90.8% (inactive)
O=C(Nc1ccncc1)C(=O)c1cn(S(=O)(=O)c2ccc(F)cc2)c2ccccc12	K-562 leukemia	9.29% (active)
N=c1c2c(-c3ccccc3)c(-c3ccccc3)n(Cc3ccccc3)c2ncn1CCCO	K-562 leukemia	-0.624% (active)
